assayDetails: Toxicity liver stage against HepG2, at 10uM
Type: cell-based
Set-up: test concentration 10 uM, cell line HepG2-A16-CD81EGFP
appliedConditions: human, HepG2-A16-CD81EGFP cells; read-out: INHIBITION
Catalogue of cytotoxicity at 10 µM readings, one per entry.
Answer in %, number only, no unit symbol.

{"compound": "O=C(CC1CC1)N1CCCC2(CCC(=O)N2CC2CC2)CC1 (centres undefined)", "resultNumber": 0.964}
{"compound": "O=C(c1ccn(-c2cccc(F)c2)n1)N1CCN(CC2CC2)CC1", "resultNumber": -7.54}
{"compound": "O=C(O)[C@@H]1CN(Cc2cnc(C3CCCCC3)nc2)C[C@H]1C1CC1", "resultNumber": -10}

# compound "CC(C)N1CCc2onc(Cn3cccn3)c2C1" ; its cytotoxicity at 10 µM = 5.44

# compound Cc1ccc(C(=O)NCC2CCN(C)c3ccccc32)c(=O)[nH]1 (centres undefined) ; its cytotoxicity at 10 µM = 12.6

# compound CC(=O)N1CCCC(c2nccnc2Nc2nc(C)cc(C)n2)C1 (centres undefined) ; its cytotoxicity at 10 µM = 1.43

# compound "Cc1cc(C)n(CCCC(=O)N2CC[C@H]3NCCC[C@]3(CO)C2)n1" ; its cytotoxicity at 10 µM = -0.862

# compound Cc1occc1C(=O)N1Cc2nccn2CC(CN(C)C)C1 (centres undefined) ; its cytotoxicity at 10 µM = -97.7

# compound Cc1cnc(C(=O)N2CCCC(n3nc(C)nc3C)C2)cn1 (centres undefined) ; its cytotoxicity at 10 µM = -12

====

assayDetails: Toxicity liver stage against HepG2, at 10uM
Assay type: cell-based
Design: test concentration 10 uM, cell line HepG2-A16-CD81EGFP
appliedConditions: human, HepG2-A16-CD81EGFP cells; read-out: INHIBITION
reportedEndpoint: cytotoxicity at 10 µM (%)
Answer in %, number only, no unit symbol.

{"molecule": "CC(=O)NC1CCCN(C(=O)CCc2cccnc2)C1 (configuration not stated)", "resultNumber": 19.8}
{"molecule": "CN(Cc1cccnc1)CC1CNCc2nccn2C1 (configuration not stated)", "resultNumber": -77.2}
{"molecule": "Fc1cccc(N2CCc3ncnc(C4CC4)c3CC2)c1", "resultNumber": 11.9}

# molecule Cn1cc(C2(C)CN(c3ncccc3C#N)CCO2)cn1 (configuration not stated) ; its cytotoxicity at 10 µM = 4.48

# molecule Cc1nccn1C1CCCN(C(=O)c2ccc3nncn3c2)C1 (configuration not stated) ; its cytotoxicity at 10 µM = -2.42

# molecule "COc1ccccc1C(=O)N1CCN(C(=O)Cc2ccccn2)CC1" ; its cytotoxicity at 10 µM = -7.57

# molecule O=C(C1CCCN(CCc2ccc3c(c2)CCO3)C1)N1CCCC1 (configuration not stated) ; its cytotoxicity at 10 µM = -19.8

# molecule "Cc1cc(N2C[C@H](C3CC3)[C@@H](N)C2)nc(N2CCCCC2)n1" ; its cytotoxicity at 10 µM = -15.6

# molecule O[C@@H]1CCN(CC2CCOC2)[C@H]1Cc1cccnc1 (some centres not stated) ; its cytotoxicity at 10 µM = -8.56

# molecule "Cc1ocnc1C(=O)N1CCCN(Cc2cscn2)CC1" ; its cytotoxicity at 10 µM = -7.22

# molecule "Cn1cc(CN2C[C@@H]3COC[C@]3(CNC(=O)c3ccccc3)C2)cn1" ; its cytotoxicity at 10 µM = -4.02

# molecule "CC(=O)N(C)Cc1ccccc1NC(=O)c1ccccc1C" ; its cytotoxicity at 10 µM = 1.18

====

assayDetails: Toxicity liver stage against HepG2, at 10uM
Format: cell-based
Parameters: test concentration 10 uM, cell line HepG2-A16-CD81EGFP
appliedConditions: human, HepG2-A16-CD81EGFP cells; read-out: INHIBITION
reportedEndpoint: cytotoxicity at 10 µM (%)
Answer in %, number only, no unit symbol.

{"compound": "Cc1nn(C)cc1C(=O)Nc1cccc(CN2CCC(CO)CC2)c1", "reportedEndpoint": "cytotoxicity at 10 µM", "resultNumber": -10.2}
{"compound": "COCCCN(C)c1nc(-c2ccncc2)nc(C)c1C", "reportedEndpoint": "cytotoxicity at 10 µM", "resultNumber": 2.8}
{"compound": "Cc1cc(=O)[nH]c(CCNC(=O)C(c2ccc(F)cc2)N(C)C)n1 (configuration not stated)", "reportedEndpoint": "cytotoxicity at 10 µM", "resultNumber": -9.78}

# compound "Cc1cccc2c1nc1n2[C@@H](CNC(=O)c2cncnc2)COC1" ; its cytotoxicity at 10 µM = 1.53

# compound "O=C(NCc1ccccn1)NCc1ccc(Cl)s1" ; its cytotoxicity at 10 µM = -7.52

# compound "O=C1CC2(CCCC2)CC(=O)N1Cc1nccs1" ; its cytotoxicity at 10 µM = 3.16

# compound "COCCC(=O)N1CCC2(CCN(Cc3ccc(C)cc3)CC2)C1" ; its cytotoxicity at 10 µM = -74.4

# compound COCCc1ncc(CN2CCC3(CCCN(CC4CC4)C3)C2)cn1 (configuration not stated) ; its cytotoxicity at 10 µM = -4.07

# compound "CC[C@@H](C)[C@H](NC(=O)Cn1ccc2c(Cl)cccc21)C(=O)O" ; its cytotoxicity at 10 µM = 2.88

# compound CC(=O)N1CCN(C)CC(COCc2ccccc2)C1 (configuration not stated) ; its cytotoxicity at 10 µM = -4.79

# compound "Cc1cnn(C2CN(Cc3nc(-c4ccccc4C)no3)C2)c1" ; its cytotoxicity at 10 µM = -10.6

# compound CCc1cc(CNC(=O)N(C2CC2)C(C)c2ccco2)[nH]n1 (configuration not stated) ; its cytotoxicity at 10 µM = 4.18

====

assayDetails: Toxicity liver stage against HepG2, at 10uM
Format: cell-based
Set-up: test concentration 10 uM, cell line HepG2-A16-CD81EGFP
appliedConditions: human, HepG2-A16-CD81EGFP cells; read-out: INHIBITION
reportedEndpoint: cytotoxicity at 10 µM (%)
Answer in %, number only, no unit symbol.

Answered cases to consult:
{"compound": "c1cc(OCc2ccc3c(c2)OCO3)ccc1CNC1CC1", "cytotoxicity at 10 µM, %": 4.7}
{"compound": "O=C(CSc1nnc(N2CCOCC2)s1)NCc1cccs1", "cytotoxicity at 10 µM, %": 1.66}
{"compound": "O=C(NCC1CC1)C1CSCN1S(=O)(=O)c1cccc(F)c1 (stereo not drawn)", "cytotoxicity at 10 µM, %": -14.3}
{"compound": "CC(C)c1nnc2sc(CC3CN(Cc4ccccc4)CCO3)nn12 (stereo not drawn)", "cytotoxicity at 10 µM, %": -2.66}
{"compound": "O=C(c1nnn(-c2ccc(Cl)cc2)n1)N(CCO)Cc1ccccc1", "cytotoxicity at 10 µM, %": -1.9}
{"compound": "Cc1nc(COC[C@@H]2CC[C@H]3[C@H](CCN3c3ncccn3)O2)cs1", "cytotoxicity at 10 µM, %": 2.19}
{"compound": "O=C(c1cccn1Cc1cccs1)N1CCN2CCCCC2C1 (stereo not drawn)", "cytotoxicity at 10 µM, %": -7.42}
{"compound": "CCOc1ncnc2c1CCN(Cc1csc(C)n1)CC2", "cytotoxicity at 10 µM, %": -68.1}
{"compound": "Cc1cnn(C(C)C(=O)NCC2CCN(c3cnn(C)c(=O)c3)CC2)c1 (stereo not drawn)", "cytotoxicity at 10 µM, %": 2.81}
{"compound": "CC(O)(CCc1ccccc1)CNC(=O)c1cccs1 (stereo not drawn)", "cytotoxicity at 10 µM, %": -1.44}

# compound O=C(NCC1CCC2(CCNCC2)CO1)c1ccno1 (stereo not drawn) ; its cytotoxicity at 10 µM = 12.5

# compound "CCn1cc(CN2CCCN(C(=O)c3c(C)oc(C)c3C)CC2)cn1" ; its cytotoxicity at 10 µM = -8.89

# compound "CCCC(=O)N1CCC(C(=O)NCCN2CCC(C)CC2)CC1" ; its cytotoxicity at 10 µM = -2.6

# compound "Cn1cc(CN2CCCC23CCN(C(=O)c2cccs2)CC3)cn1" ; its cytotoxicity at 10 µM = 2.17

# compound "CN(Cc1cc(Cl)c2c(c1)OCO2)Cc1cscn1" ; its cytotoxicity at 10 µM = -2.76

# compound "COc1ccccc1-n1c(C)cc(CNC(=O)NC(C)C)c1C" ; its cytotoxicity at 10 µM = 3.49

# compound COc1cccc(CC2CCCN2CCCO)c1 (stereo not drawn) ; its cytotoxicity at 10 µM = -37.5

# compound CCOC(C)c1nc(Cn2cc(-n3cccc3)cn2)cs1 (stereo not drawn) ; its cytotoxicity at 10 µM = 3.81

====

Catalogue of cytotoxicity at 10 µM readings, one per entry.
assayDetails: Toxicity liver stage against HepG2, at 10uM
Type: cell-based
Parameters: test concentration 10 uM, cell line HepG2-A16-CD81EGFP
appliedConditions: human, HepG2-A16-CD81EGFP cells; read-out: INHIBITION
Answer in %, number only, no unit symbol.

Answered cases to consult:
{"compound": "CC(=O)N1CCn2c(nnc2C2CCCCN2C(C)=O)C1 (stereo not drawn)", "unitAbbreviation": "%", "cytotoxicity at 10 µM": -28.1}
{"compound": "Cc1ccccc1C(C(=O)N(C)CCc1cnn(C)c1)N(C)C (stereo not drawn)", "unitAbbreviation": "%", "cytotoxicity at 10 µM": -3.57}
{"compound": "CN1CCN([C@H]2CCN(C(=O)c3cc(Cl)cn3C)C[C@H]2CCCO)CC1", "unitAbbreviation": "%", "cytotoxicity at 10 µM": 0.174}

# compound "Cc1noc(CCCC(=O)Nc2ncccc2Br)n1" ; its cytotoxicity at 10 µM = -15.7

# compound "N#CCCN(Cc1ccccn1)Cn1cc(Cl)cn1" ; its cytotoxicity at 10 µM = 1.49

Every entry's value here was drawn from ChEMBL document CHEMBL4513216.
